# credit: the supplement of paper PMC10065799

- experimental target: MERTK (UniProt Q12866)
- Sequence (Q12866 whole entry, looked up): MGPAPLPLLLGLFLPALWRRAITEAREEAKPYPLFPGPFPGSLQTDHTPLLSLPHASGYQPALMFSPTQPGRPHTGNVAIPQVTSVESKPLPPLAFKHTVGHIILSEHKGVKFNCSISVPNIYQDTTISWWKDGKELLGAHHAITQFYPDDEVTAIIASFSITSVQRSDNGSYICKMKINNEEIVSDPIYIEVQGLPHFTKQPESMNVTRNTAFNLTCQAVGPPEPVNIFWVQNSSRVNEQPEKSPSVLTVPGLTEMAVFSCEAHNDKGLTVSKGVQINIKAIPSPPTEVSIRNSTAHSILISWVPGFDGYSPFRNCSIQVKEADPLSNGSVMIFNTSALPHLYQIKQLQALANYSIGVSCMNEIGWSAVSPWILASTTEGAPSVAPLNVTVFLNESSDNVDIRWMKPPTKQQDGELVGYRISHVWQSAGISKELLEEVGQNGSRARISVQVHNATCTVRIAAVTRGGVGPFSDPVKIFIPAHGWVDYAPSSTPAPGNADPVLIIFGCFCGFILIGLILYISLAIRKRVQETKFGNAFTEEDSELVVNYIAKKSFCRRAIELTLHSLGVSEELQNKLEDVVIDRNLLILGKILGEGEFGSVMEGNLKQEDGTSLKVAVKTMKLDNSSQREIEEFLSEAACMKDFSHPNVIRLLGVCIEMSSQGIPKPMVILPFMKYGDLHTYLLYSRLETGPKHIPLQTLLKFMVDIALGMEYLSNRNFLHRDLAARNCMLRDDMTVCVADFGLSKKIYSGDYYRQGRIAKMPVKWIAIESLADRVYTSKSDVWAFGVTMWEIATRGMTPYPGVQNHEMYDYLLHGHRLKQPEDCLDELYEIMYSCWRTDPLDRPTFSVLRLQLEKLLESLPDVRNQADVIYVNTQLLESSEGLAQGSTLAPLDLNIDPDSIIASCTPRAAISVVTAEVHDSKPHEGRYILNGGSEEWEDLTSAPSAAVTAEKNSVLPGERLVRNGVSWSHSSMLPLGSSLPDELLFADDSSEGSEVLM
- assay comment: phosphorylation enrichment, bacterial display (enrichment ratio); higher = better substrate or ligand; peptides without Tyr show the background;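 also: 11-residue human phosphosite peptides and single-mutation variants displayed on the E. coli surface, counted by deep sequencing, each peptide's frequency after selection divided by its frequency in the unselected input library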;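 also: frequency after pTyr selection over input frequency; kinase dosed for 20-30% of maximal phosphorylation in three min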
# phosphorylation enrichment >= 0.5 gives YES, anything below gives NO

sequence entry: DSSIRYLQEIH [FGG_Y135_Y140H]
cat: NO
//
sequence entry: RLAKTYETTLK [ALB_Y377_E382K]
cat: YES
//
sequence entry: TFFQMYDKGLV [IARS2_Y231_YF]
cat: YES
//
sequence entry: SVVVPYEPPKV [TP53_Y220_E224K]
cat: NO
//
sequence entry: KSIEEYLKLVG [RASAL2_Y381]
cat: NO
//
sequence entry: DEEPPHRGPFC [SASH1_Y551_Y551H]
cat: NO
//
sequence entry: DAVAVCHGKIS [SH2D1A_Y7_Y7C]
cat: NO
//
sequence entry: GKTFTYRSVFF [ZNF80_Y200]
cat: NO
//
sequence entry: QGIPWYHSQSP [FOXF1_Y331_R330W]
cat: YES
//
sequence entry: KVPCHYDDPGK [FOXG1_Y246_R244C]
cat: NO
//
sequence entry: ALAPKYHGGGG [HBB_Y146_H144P]
cat: NO
//
sequence entry: DKITQYVEEVR [STX2_Y49_K54R]
cat: NO
//
sequence entry: NFYEYYVDDPL [GCHFR_Y48_P53L]
cat: YES
//
sequence entry: LDPDSYNVFEN [FOXC1_Y159_M161V]
cat: YES
//
sequence entry: DLDTEYGSGFP [RNASEH2A_Y206_D205E_YF]
cat: NO
//
sequence entry: GITVAYTIPKK [UBA5_Y372]
cat: YES
//
sequence entry: DLDATYRPMYS [JUP_Y701_M697L]
cat: NO
//
sequence entry: KTNVSYCGALD [CACNB4_Y103]
cat: NO
//
sequence entry: ILCTVYAFKMR [GRM3_Y754_T758M]
cat: NO
//
sequence entry: TGFRPYVCPFD [YY1_Y383_D380Y_YF]
cat: YES
//
sequence entry: LIHLHYIRRDF [BBS4_Y43_K46R_YF]
cat: NO
//
sequence entry: RPSGRYPVARR [SHANK3_Y1569]
cat: YES
//
sequence entry: LEITWYPFDVE [RIPOR2_Y316]
cat: NO
//
sequence entry: NLSVRYDSSLK [ABCC8_Y1353]
cat: NO
//
sequence entry: FCIDHYLGKEM [G6PD_Y202_R198C_YF]
cat: NO
//
sequence entry: RLLRGYDQFAY [HLA-C_Y137_S140F]
cat: NO
//
sequence entry: RPSELYYSKIG [SMG1_Y2253]
cat: YES
//
sequence entry: INSLKYAYNVS [EIF2B5_Y583_I587V]
cat: NO
//
sequence entry: LADKPYTFEYY [FXN_Y118_D122Y]
cat: YES
//
sequence entry: DRLASYQDKVR [KRT12_Y139_L140Q]
cat: NO
//
sequence entry: RKLASYQSCLL [DHX37_Y1080_R1081Q]
cat: YES
//
sequence entry: RLSARYFQGDL [PDK3_Y337_Y334S]
cat: NO
//
sequence entry: YQASYYRRGDR [LTK_Y677_R673Q]
cat: YES
//
sequence entry: FSCLPYGRLAY [SLC52A2_Y305]
cat: NO
//
sequence entry: EKSREYHRLFE [PIK3R1_Y463_D464H_YF]
cat: NO
//
sequence entry: FSCLPCGRLAF [SLC52A2_Y305_Y305C_YF]
cat: YES
//
sequence entry: VHLFAYDWISI [BEST1_Y227_G222V_YF]
cat: YES
//
sequence entry: RRIHSYRRHLW [VHL_Y112_G114R]
cat: YES
//
sequence entry: GKAFIYASHIV [ZNF573_Y229]
cat: NO
//
sequence entry: RRIHSNRGHLW [VHL_Y112_Y112N]
cat: YES
//
sequence entry: CFTGKYTLPPG [HSPB1_Y142_R140G]
cat: YES
//
sequence entry: EPGNLYIAKVE [CNTN4_Y180_T176P]
cat: NO
//
sequence entry: QFNPEYVQQAS [LRRC7_Y1058_H1054Y_YF]
cat: YES
//
sequence entry: LTTEAYEWEPC [ELMOD3_Y61_R66C]
cat: YES
//
sequence entry: DPHQQYYIAMD [TBX15_Y159]
cat: YES
//
sequence entry: YYSSEYHYVGG [CTSC_Y345]
cat: YES
//
sequence entry: LFSNAYLNDLA [ALDH1A1_Y119_YF]
cat: YES
//
sequence entry: YLAAIYPTVGQ [NF1_Y2508_T2507I]
cat: YES
//
sequence entry: NNKKDYYDMYE [SLC26A3_Y526_K521N]
cat: NO
//
sequence entry: SRGRQYQELPR [KCNH2_Y1009]
cat: NO
//
sequence entry: RSDEDYLCREE [POR_Y573_Y575C]
cat: YES
//
sequence entry: QTEAPYRFIYM [PTPN11_Y511_Q510P]
cat: YES
